Test system: SRMS;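 further: KINOMEscan kinase panel screen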
Setup Conditions: concentration: 1 μM, replicates: in singlicate; n = 1
Listed below: %Inh values for each entry.
Numeric only. Scale: %

Worked examples, 3 compounds total:
FC(F)(F)c1cc(Nc2nccc(-c3c(-c4ccc(Cl)cc4)nn4ncccc34)n2)ccc1Cl: 27
CN1CCC(n2cnc(-c3ccc(F)cc3)c2-c2ccnc(NC3CCNCC3)n2)CC1: 28
N#Cc1ccc(Oc2ccc(Nc3ncnc4cc[nH]c34)cc2Cl)cc1: 0

The measured %Inh associated with CN1c2ccc(-c3ccc(C(=O)NCCO)cc3)cc2-c2[nH]ncc2S1(=O)=O reads 0

The compound identified as Fc1cccc(COc2ccc(Nc3ncnc4sc(-c5ccc[nH]5)cc34)cc2Cl)c1 registered its %Inh at 14

The compound identified as CNc1nccc(-c2c(-c3ccc(F)cc3)ncn2C2CCN(C)CC2)n1 registered its %Inh at 15

Looking up O=C(c1ccc(-c2cc(-c3c[nH]nc3-c3ccccn3)ccn2)cc1)N1CCCC1 , I found its %Inh recorded as 0

Recorded %Inh (compound O=C(CCO)NCCn1ccc2ncnc(Nc3ccc(Oc4cccc(C(F)(F)F)c4)c(Cl)c3)c21 ): 0

// %Inh value for O=C(Nc1ccccc1F)NC1CCN(c2ccnc(Nc3ccc(F)cc3)n2)C1 (stereo not drawn) : 0
